Molecular target: human wild type FGFR3 (Homo sapiens (Human), UniProt P22607)
Sequence (P22607 23-806): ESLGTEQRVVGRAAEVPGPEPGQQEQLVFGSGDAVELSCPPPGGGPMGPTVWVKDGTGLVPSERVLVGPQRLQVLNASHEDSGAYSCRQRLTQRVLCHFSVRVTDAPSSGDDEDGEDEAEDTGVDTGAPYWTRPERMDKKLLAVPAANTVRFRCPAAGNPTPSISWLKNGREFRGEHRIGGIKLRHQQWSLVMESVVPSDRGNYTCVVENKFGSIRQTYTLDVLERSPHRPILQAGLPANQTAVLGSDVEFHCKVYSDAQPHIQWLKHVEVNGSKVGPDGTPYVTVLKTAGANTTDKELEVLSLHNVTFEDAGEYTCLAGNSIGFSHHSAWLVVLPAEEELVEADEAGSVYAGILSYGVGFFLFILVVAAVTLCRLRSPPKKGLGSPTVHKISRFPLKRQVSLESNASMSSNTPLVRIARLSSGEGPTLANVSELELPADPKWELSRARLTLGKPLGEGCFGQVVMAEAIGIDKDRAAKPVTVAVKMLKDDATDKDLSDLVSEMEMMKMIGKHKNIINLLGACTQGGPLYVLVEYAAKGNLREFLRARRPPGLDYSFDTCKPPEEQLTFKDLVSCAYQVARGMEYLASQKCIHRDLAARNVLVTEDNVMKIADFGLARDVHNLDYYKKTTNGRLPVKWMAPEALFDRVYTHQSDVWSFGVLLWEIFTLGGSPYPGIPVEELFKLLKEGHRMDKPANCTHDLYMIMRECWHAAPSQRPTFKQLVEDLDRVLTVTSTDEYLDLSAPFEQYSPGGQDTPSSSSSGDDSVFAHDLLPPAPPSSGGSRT
Assay: FGFR3 pERK Cell Assay
Assay type: cell-based
Conditions: HEK-293 cells, 1 hour compound, 100 ng/ml human FGF-acidic; maximum concentration 5 μM
MEASURED METRIC: IC50 (nM)
Write down the numeric answer in nM and omit the unit.

# count of solved cases: 4
Param readout= IC50; system= human wild type FGFR3 (Homo sapiens (Human), UniProt P22607); entry= `C=CC(=O)N1CC(C(=O)N2CCC(n3cc(-c4cnc5ccc(Nc6cc(OC)cc(OC)c6)cc5n4)cn3)CC2)C1` ; returns value.
44

Could you do the same for `C=CC(=O)N1CC(O)(C(=O)N2CCC(n3cc(-c4cnc5ccc(Nc6cc(OC)cc(OC)c6)cc5n4)cn3)CC2)C1` , please?
153

Thanks! And `COc1cc(Nc2ccc3ncc(-c4cnc(N5CCN(C(=O)C6(F)CN(C(=O)/C=C/CN(C)C)C6)CC5)cc4C)nc3c2)cc(OC)c1` ?
540

Here is the next compound: `C=CC(=O)N1CC(CN2CCC(n3cc(-c4cnc5ccc(Nc6cc(OC)cc(OC)c6)cc5n4)cn3)CC2)C1`
24

Please turn your attention to the following entry.
Give the reported IC50 for `C=CC(=O)N1CC(F)(C(=O)N2CCN(c3ccc(-c4cnc5ccc(Nc6cc(OC)cc(OC)c6)cc5n4)cn3)CC2)C1` (system: human wild type FGFR3 (Homo sapiens (Human), UniProt P22607)).
154
